Reference source: the SangsterLogP compilation

test: method code SF-AS, from DOI: 10.1021/jm9807104, PMID: 10514282; conditions: pH 7.0
Reported metric: logD
Give your answer as a number; write no unit.

COC(=O)C(C)NP(=O)(Oc1ccc(C)cc1)OC1C=CC(n2cc(C)c(=O)[nH]c2=O)O1 (configuration not stated)    1.19

QUERY: Name the recorded logD for COC(=O)C(C)NP(=O)(OCC1C=CC(n2cc(C)c(=O)[nH]c2=O)O1)Oc1ccc(OC(C)=O)cc1 (configuration not stated) .
RESULT: 1.01

---

test: method code SF-CR, from DOI: 10.1042/bj1780443, PMID: 109087; conditions: pH 7.4
Reported metric: logD
Give only the figure.

QUERY: Which logD is listed for CCc1ccc(O)cc1 ?
RESULT: 2.4

---

Reported metric: logP
The answer should be a number; do not append a unit.

QUERY: // returns reported logP for input c1nnnn1C12CC3CC(CC(C3)C1)C2
RESULT: 2.95

---

test: method code SF-AS, from DOI: 10.1016/j.bmc.2011.10.017, PMID: 22094277; settings: pH 7.4
Reported metric: logD
Answer as a number with no unit attached.

QUERY: Please report the recorded logD for CCCOC(=O)[C@@]1(C)[C@H](CO)CC=[N+]1[O-] .
RESULT: -0.82

---

Each entry gets 0.0 if its logP stays under 3, and 1.0 if its logP is 3 or above.

CC[C@H]1OC(=O)C[C@@H](O)[C@H](C)[C@@H](O[C@@H]2O[C@H](C)[C@@H](O)[C@H](N(C)C)[C@H]2O)[C@@H](CC=O)C[C@@H](C)C(=O)/C=C/C(C)=C/[C@@H]1CO    0.0

QUERY: Please indicate if the recorded logP for CCC1OC(=O)CC(O)C(C)C(O[C@H]2OC(C)C(O)C(N(C)C)C2O)C(CCN2CC(C)CC(C)C2)CC(C)C(=O)C=CC(C)=CC1COC1OC(C)C(O)C(OC)C1OC (stereo partly specified) meets or exceeds 3.
RESULT: 1.0

QUERY: Is the recorded value of logP equal to or greater than 3 for this compound? CCC1OC(=O)CC(O)C(C)C(OC2OC(C)C(OC3C[C@@](C)(O)C(O)C(C)O3)C(N(C)C)C2O)C(CC=O)CC(C)C(=O)C=CC(C)=CC1COC1OC(C)C(O)C(OC)C1OC (stereo partly specified)
RESULT: 0.0

QUERY: Given CO[C@H]1C[C@H](O[C@H]2[C@H](C)[C@@H](O[C@@H]3O[C@H](C)C[C@H](N(C)C)[C@H]3O)[C@@H](C)C[C@@]3(CO3)C(=O)[C@H](C)[C@@H](O)[C@@H](C)[C@@H](C)OC(=O)[C@@H]2C)O[C@@H](C)[C@@H]1O , state whether its logP is at least 3.
RESULT: 0.0

---

experiment: method code SF-AS, from DOI: 10.1128/aac.27.1.84, PMID: 2580479
Reported metric: logP
Please give only the number in your answer, with no unit.

CCN1CCN(C(=O)N[C@@H](C(=O)N[C@@H]2C(=O)N3C(C(=O)O)=C(CSc4nnnn4C)CS[C@H]23)c2ccc(O)cc2)C(=O)C1=O    -0.74
CO[C@@]1(NC(=O)Cc2cccs2)C(=O)N2C(C(=O)O)=C(COC(N)=O)CS[C@@H]21    -0.02
CC(=O)OCC1=C(C(=O)O)N2C(=O)[C@@H](NC(=O)CC#N)[C@H]2SC1    -0.45

Could you now look at the following compound, please?
QUERY: Form field: reported logP of CCN1CCN(C(=O)N[C@@H](C(=O)N[C@@H]2C(=O)N3[C@@H]2SC(C)(C)[C@@H]3C(=O)O)c2ccccc2)C(=O)C1=O
RESULT: 0.5
